Value source: patent US10765114B2

Could you please report measured pest or weed control at 140 g/ha for the items listed next?
# System: Key Broadleaf Weed and Crop Species
# TEST_METHOD_NOTES: Post-Emergent Test II (Table 5)
# Type: in vivo
# SETUP_CONDITIONS: Euphorbia heterophylla, post-emergence, 336 h, EPHHL: wild poinsettia (Euphorbia heterophylla), application rate 140 (kg ai/ha; footnote: g ai/ha), read-out: Visual Growth Reduction (%) 14 Days After Application EPHHL

Reported pest or weed control at 140 g/ha for `COC(=O)c1nc(-c2ccc(Cl)c(F)c2Cl)c(F)c(N)c1Cl` was 95 to 100%

// pest or weed control at 140 g/ha lookup, compound = `COC(=O)c1nc(-c2ccc(Cl)c(F)c2C)c(Cl)c(N)c1Cl` , result: 0 to 29%

The measured pest or weed control at 140 g/ha associated with `Cc1c(-c2nc(C(=O)O)c(Cl)c(N)c2F)ccc(C(F)(F)F)c1F` reads 45 to 59%

Notebook: `COC(=O)c1nc(-c2c(F)cc(Cl)c(F)c2C)cc(N)c1Cl` , pest or weed control at 140 g/ha read as 45 to 59%

Query `Cc1c(-c2cc(N)c(Cl)c(C(=O)O)n2)ccc(C(F)(F)F)c1F` yields pest or weed control at 140 g/ha of 95 to 100%

Lab book: pest or weed control at 140 g/ha of `COC(=O)c1nc(-c2ccc(C(F)(F)F)c(F)c2C)c(F)c(N)c1Cl` noted as 45 to 59%

Entry under test: `Nc1c(F)c(-c2ccc(C(F)(F)F)nc2F)nc(C(=O)O)c1Cl` . Its pest or weed control at 140 g/ha was 0 to 29%

The compound listed as `Cc1c(-c2cc(N)c(Cl)c(C(=O)O)n2)ccc(F)c1F` has a reported pest or weed control at 140 g/ha of 0 to 29%

Entry `COC(=O)c1nc(-c2ccc(Cl)c(F)c2CF)cc(N)c1Cl` — recorded pest or weed control at 140 g/ha = 0 to 29%
